Reported % DAMGO (1 μM) values for a set of compounds
Test system: mu opiate receptor (MOR)
Assay: MOR agonist activity using [35S]GTPγS binding assay in striatal membranes
Format: biochemical
Conditions: Series C-2; 1 μM compound, relative to DAMGO
I only need the number, in %, no unit after it.

O=S(=O)(c1ccccc1Oc1ccccc1)N1CCC2(CC1)NCCO2 [Compound C0149M-2]	124.8
CC(=O)c1ccc(S(=O)(=O)N2CCOC23CCN(CC2CC2)CC3)cc1 [Compound C0095M]	88.8
COc1ccc(S(=O)(=O)N2CCC3(NCCO3)C3CCCCC32)cc1 (stereo not drawn) [Compound C0144M-2]	90.8
CC(=O)N1CCSC12CCN(S(=O)(=O)c1ccc([N+](=O)[O-])cc1)CC2	54.8
COc1ccc(S(=O)(=O)N2CCSC23CCNCC3)cc1	84.4

Input C=CCN1CCC2(CC1)OCCN2S(=O)(=O)c1ccc(OC)cc1 [Compound C0091M] . Output % DAMGO (1 μM): 108.5

The recorded % DAMGO (1 μM) for entry C=CCN1CCC2(CC1)OCCN2S(=O)(=O)c1ccc(C(C)=O)cc1 [Compound C0096M] equals 130.0

Memo: CCN1CCC2(CC1)OCCN2S(=O)(=O)c1ccc(C(C)=O)cc1 [Compound C0094M] , reported % DAMGO (1 μM): 119.9

Field % DAMGO (1 μM) (entry CC(=O)c1ccc(S(=O)(=O)N2CCC3(CC2)NCCS3)cc1 ) reads 93.9

###

Entries and their inhibition at 0.1 µM
Target: FLNA pentapeptide of SEQ ID NO: 1 (Bn-VAKGL) (Homo sapiens, UniProt P21333)
Assay: FITC-NLX-based FLNA screening assay (inhibition of FITC-naloxone binding to Bn-VAKGL on streptavidin plates)
Conditions: read-out: Percent Binding Inhibition, FLNA-binding compound 0.1 μM; 10 nM FITC-NLX
A number alone suffices; assume %.

Use these answered entries as a reference point.
CCN(CC)CC(O)COC1CC(C)CCC1C(C)C (stereo not drawn)	50.3
CC1CCC(C(C)C)C(OCC(O)CN2CCc3ccccc3C2)C1 (stereo not drawn)	50.4

The record that follows has no inhibition at 0.1 µM shown yet.
Just so you know, measured inhibition at 0.1 µM for CC1CN(CC(O)COc2ccccc2)CC(C)O1 (stereo not drawn) came out at 49.8

###

Documented MOR agonist activity ([35S]GTPγS binding), FLNA-Binding Compound as Agonist 1 μM across a set of compounds
Test system: mu opiate receptor (MOR)
Assay: MOR agonist activity using [35S]GTPγS binding assay in striatal membranes
Assay type: biochemical
Settings: 1 μM compound
Write the answer as a number in %, unit excluded.

Worked cases, MOR agonist activity ([35S]GTPγS binding), FLNA-Binding Compound as Agonist 1 μM given:
COc1ccc(OCC(O)CN2CCc3cc4c(c(OC)c3C2)OCO4)cc1 (stereo not shown)	195.3
COc1c2c(cc3c1OCO3)CCN(CC(O)COC1CC(C)CCC1C(C)C)C2 (stereo not shown)	197.1
OC(COc1cccc(F)c1)CN1CCc2ccccc2C1 (stereo not shown)	195.2

The compound CC1CCC(C(C)C)C(OCC(O)CN2CCOc3ccccc32)C1 (stereo not shown) showed MOR agonist activity ([35S]GTPγS binding), FLNA-Binding Compound as Agonist 1 μM equal to 195.6

###

molecules and their reported % DAMGO (1 μM)
System: mu opiate receptor (MOR)
Test: MOR agonist activity using [35S]GTPγS binding assay in striatal membranes
Type: biochemical
Details: Series B; 1 μM compound, relative to DAMGO
Protocol: To assess the mu opiate receptor (MOR) agonist activity of positive compounds from the FLNA screening, compounds were tested in a [^35S]GTPγS binding assay using striatal membranes. […] The immunocomplexes so formed were collected by incubation at 25° C. for 30 minutes with 40 μl of agarose-conjugated protein A/G beads and centrifugation at 5,000×g at 4° C. for 5 minutes. […] The radioactivity in the suspension was determined by liquid scintillation spectrometry.
# output: bare number, implied unit %

COc1cccc(OC)c1CC(=O)CC1c2c(cc3c(c2OC)OCO3)CC[N+]1(C)C (stereo not drawn)	52.1
COc1c2c(cc3c1C(CC(=O)c1cccc(C(F)(F)F)c1)[N+](C)(C)CC3)OCO2 (stereo not drawn)	47.5

Please turn your attention to the following entry.
So the reported % DAMGO (1 μM) for COc1ccc(CCC(=O)CC2c3c(cc4c(c3OC)OCO4)CC[N+]2(C)C)c(OC)c1 (stereo not drawn) , on mu opiate receptor (MOR), turned out to be 97.6

###

Tested on: mu opiate receptor (MOR)
Assay: MOR agonist activity using [35S]GTPγS binding assay in striatal membranes
Format: biochemical
Conditions: Series C-2; 1 μM compound + β-FNA, relative to DAMGO + BFNA
outcome.measure: % DAMGO + BFNA
Answer format: value, then unit.

Recorded % DAMGO + BFNA, per entry:
O=C1CNC2(CCNCC2)N1Cc1ccccc1 [Compound C0114M]	91.3%
CCc1ccc(S(=O)(=O)N2CCOC23CCN(CC2CC2)CC3)cc1 [Compound C0135M]	233.6%

% DAMGO + BFNA measured on COc1ccc(S(=O)(=O)N2CCOC23CCN(C(C)C)CC3)cc1 [Compound C0133M] = 152.4%

The reported value for CC(=O)c1ccc(S(=O)(=O)N2CCOC23CCNCC3)cc1 in terms of % DAMGO + BFNA is 356.4%

The compound CCCCN1CCC2(CC1)OCCN2S(=O)(=O)c1ccc(C(C)=O)cc1 [Compound C0101M] showed % DAMGO + BFNA equal to 368.0%

The compound COc1ccc(S(=O)(=O)N2CCC3(CC2)NCCO3)cc1 showed % DAMGO + BFNA equal to 48.3%

###

Readings of % DAMGO (1 μM) for the listed molecules
Tested on: mu opiate receptor (MOR)
Experiment: MOR agonist activity using [35S]GTPγS binding assay in striatal membranes
Type: biochemical
Conditions: Series B; 1 μM compound, relative to DAMGO
Description: To assess the mu opiate receptor (MOR) agonist activity of positive compounds from the FLNA screening, compounds were tested in a [^35S]GTPγS binding assay using striatal membranes. […] The immunocomplexes so formed were collected by incubation at 25° C. for 30 minutes with 40 μl of agarose-conjugated protein A/G beads and centrifugation at 5,000×g at 4° C. for 5 minutes. […] The radioactivity in the suspension was determined by liquid scintillation spectrometry.
Entry rule: numbers only, all in %.

Some molecules with recorded % DAMGO (1 μM):
COc1c2c(cc3c1C(CC(=O)c1ccc(N4CCOCC4)cc1)[N+](C)(C)CC3)OCO2 (stereo not shown) [Compound B0004]	85.8
COc1cc(C(=O)CC2c3c(cc4c(c3OC)OCO4)CC[N+]2(C)C)cc(OC)c1OC (stereo not shown) [Compound B0037]	80.4
COc1c2c(cc3c1C(CC(=O)CCc1ccc(F)cc1)[N+](C)(C)CC3)OCO2 (stereo not shown) [Compound B0018]	53.5

get_value(item= COc1ccccc1CCC(=O)CC1c2c(cc3c(c2OC)OCO3)CC[N+]1(C)C (stereo not shown) [Compound B0045] , readout=% DAMGO (1 μM)) returns 83.4

GET /value?item= COc1ccc(CCC(=O)CC2c3c(cc4c(c3OC)OCO4)CCN2C)cc1 (stereo not shown) [Compound B0047] &field=% DAMGO (1 μM) returns 92.6

molecule COc1c2c(cc3c1C(CC(=O)/C=C/c1ccc(Cl)cc1)[N+](C)(C)CC3)OCO2 (stereo not shown) [Compound B0019] , % DAMGO (1 μM) observed: 96.0

Looking up COc1ccc(CCC(=O)CC2c3c(cc4c(c3OC)OCO4)CC[N+]2(C)C)cc1 (stereo not shown) [Compound B0016] , I found its % DAMGO (1 μM) recorded as 79.9

###

Target: FLNA pentapeptide of SEQ ID NO: 1 (Bn-VAKGL) (Homo sapiens, UniProt P21333)
Experiment: FITC-NLX-based FLNA screening assay (inhibition of FITC-naloxone binding to Bn-VAKGL on streptavidin plates)
Conditions: read-out: Percent Binding Inhibition, FLNA-binding compound 0.01 μM; 10 nM FITC-NLX
Would you mind labelling by inhibition at 0.01 µM? At or over 30% is Fulfilled, under is Not fulfilled.

OC(COc1ccc(Br)c(F)c1)CN1CCSCC1 (stereo not drawn)	Not fulfilled
COc1c2c(cc3c1C(CC(=O)CCc1ccc(Cl)cc1)[N+](C)(C)CC3)OCO2 (stereo not drawn)	Not fulfilled
COc1cccc(OC)c1C(=O)CC1c2c(cc3c(c2OC)OCO3)CC[N+]1(C)C (stereo not drawn)	Not fulfilled
O=S(=O)(c1ccc(C(F)(F)F)cc1Br)N1CCC2(CC1)OCCN2S(=O)(=O)c1ccc(C(F)(F)F)cc1Br	Fulfilled
CC(=O)c1ccc(S(=O)(=O)N2CCC3(CC2)NC(=O)C(Cc2cnc[nH]2)N3S(=O)(=O)c2ccc(C(C)=O)cc2)cc1 (stereo not drawn) [Compound C0084M]	Fulfilled

Exercise: Is it the case that COc1c2c(cc3c1C(CC(=O)c1ccncc1)[N+](C)(C)CC3)OCO2 (stereo not drawn) has inhibition at 0.01 µM reaching or exceeding 30%?
Key: Fulfilled
